// provenance: patent US7582616B2

# Target Under Test: es nucleoside transporter (Homo sapiens)
# Construct: endogenous in cells; host or cells: K562 human chronic myelogenous leukemia cells (intact cells)
# Sequence (Q99808 1-456): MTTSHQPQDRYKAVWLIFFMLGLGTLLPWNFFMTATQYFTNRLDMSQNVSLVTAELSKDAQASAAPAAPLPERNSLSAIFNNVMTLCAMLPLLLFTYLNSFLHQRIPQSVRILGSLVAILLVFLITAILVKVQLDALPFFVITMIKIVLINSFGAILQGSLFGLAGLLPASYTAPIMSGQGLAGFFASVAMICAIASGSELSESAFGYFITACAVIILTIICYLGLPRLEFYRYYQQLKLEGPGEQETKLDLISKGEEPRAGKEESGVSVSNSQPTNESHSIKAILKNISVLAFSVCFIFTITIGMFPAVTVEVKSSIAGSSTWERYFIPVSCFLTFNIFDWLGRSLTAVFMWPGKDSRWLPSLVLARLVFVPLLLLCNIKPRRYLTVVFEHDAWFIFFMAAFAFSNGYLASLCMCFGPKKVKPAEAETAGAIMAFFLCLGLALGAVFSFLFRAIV
# Method Description: Flow cytometric es nucleoside transporter binding assay (displacement of 5-(SAENTA)-X8-fluorescein) in K562 cells
# Run Conditions: 25 nM 5-(SAENTA)-X8-fluorescein, 45 minutes, room temperature, read-out: Flow Cytometrically-Determined Ki Values
Value Type: Ki (nM)

P = O=[N+]([O-])c1cccc2c1CN(c1ncnc3c1ncn3[C@@H]1O[C@H](CO)[C@@H](O)[C@H]1O)CC2
Q = OC[C@H]1O[C@@H](n2cnc3c(N4CCc5ccccc5C4)ncnc32)[C@H](O)[C@@H]1O
Request: Please indicate which has the smaller reported Ki: P , or Q . Please respond with the label that marks your chosen entry.
Result: Q
